Where do these numbers come from? They come from patent US8883963B2.

# tested-on: Human GLP-1 receptor (Homo sapiens)
# Construct: The full-length cDNA was cloned in pcDNA3.1(+); expressed in transfected cells
# Sequence (P43220 24-463): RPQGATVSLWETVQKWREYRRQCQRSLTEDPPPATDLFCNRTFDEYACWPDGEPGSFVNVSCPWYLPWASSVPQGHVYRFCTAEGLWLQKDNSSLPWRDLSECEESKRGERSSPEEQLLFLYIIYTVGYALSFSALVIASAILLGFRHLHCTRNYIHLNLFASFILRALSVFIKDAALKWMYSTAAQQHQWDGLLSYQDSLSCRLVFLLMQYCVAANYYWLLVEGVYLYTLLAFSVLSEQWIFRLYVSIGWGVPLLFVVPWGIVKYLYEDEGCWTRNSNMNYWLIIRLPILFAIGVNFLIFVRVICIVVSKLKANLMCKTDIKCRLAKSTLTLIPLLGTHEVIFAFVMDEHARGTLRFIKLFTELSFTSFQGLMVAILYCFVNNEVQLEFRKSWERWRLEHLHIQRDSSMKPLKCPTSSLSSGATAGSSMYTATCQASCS
# method-summary: In vitro Human GLP-1 R agonist activity (cyclic AMP determination) in CHO/human GLP1R cells
# Assay type: cell-based
# condition-summary: 10 nM test compound
Measured Human GLP-1 R activity (cAMP release), % activity with respect to control by item
# do not omit the unit; it follows the number

Please review the following examples before continuing.
INSERT INTO results (molecule, result) VALUES
  ('CCc1cc(OC)ccc1-c1ccc(CC(NC(=O)[C@H](CC(=O)O)NC(=O)[C@H](CO)NC(=O)[C@@H](NC(=O)[C@H](Cc2ccccc2)NC(=O)[C@@H](NC(=O)CNC(=O)[C@H](CCC(N)=O)NC(=O)[C@H](C)NC(=O)[C@@H](N)Cc2c[nH]cn2)[C@@H](C)O)[C@@H](C)O)C(=O)NC(CCCc2ccc(Cl)cc2C)C(N)=O)cc1 (single isomer, unassigned)', '99 ± 0.13%'),
  ('CCc1cc(OC)ccc1-c1ccc(CC(NC(=O)[C@H](CC(=O)O)NC(=O)[C@H](CO)NC(=O)[C@@H](NC(=O)C(C)(Cc2ccccc2F)NC(=O)[C@@H](NC(=O)CNC(=O)C(CCC#N)NC(=O)C(C)(C)NC(=O)[C@H](Cc2c[nH]cn2)NC(C)=O)[C@@H](C)O)[C@@H](C)O)C(=O)NC(CCCc2ccccc2)C(N)=O)cc1 (single isomer, unassigned)', '99 ± 0.07%'),
  ('CCc1cc(OC)ccc1-c1ccc(CC(NC(=O)[C@H](CC(=O)O)NC(=O)[C@H](CO)NC(=O)[C@@H](NC(=O)[C@H](Cc2ccccc2)NC(=O)[C@@H](NC(=O)CNC(=O)C(CCC#N)NC(=O)C(C)(C)NC(=O)[C@@H](N)Cc2c[nH]cn2)[C@@H](C)O)[C@@H](C)O)C(=O)NC(CCCc2ccc(F)cc2C(F)(F)F)C(N)=O)cc1 (single isomer, unassigned)', '97 ± 0.46%'),
  ('CCc1cc(OC)ccc1-c1ccc(CC(CNC(CCCc2ccccc2F)C(N)=O)NC[C@H](CC(=O)O)NC(=O)[C@H](CO)NC(=O)[C@@H](NC(=O)C(C)(Cc2ccccc2F)NC(=O)[C@@H](NC(=O)CNC(=O)[C@H](CCC(N)=O)NC(=O)C(C)(C)NC(=O)[C@@H](N)Cc2c[nH]cn2)[C@H](C)O)[C@H](C)O)cc1 (single isomer, unassigned)', '99 ± 0.09%'),
  ('CCc1cc(OC)ccc1-c1ccc(CC(CNC(CCCc2ccccc2)C(N)=O)NC[C@H](CC(=O)O)NC(=O)[C@H](CO)NC(=O)[C@@H](NC(=O)C(C)(Cc2ccccc2F)NC(=O)[C@@H](NC(=O)CNC(=O)[C@H](CCC(N)=O)NC(=O)C(C)(C)NC(=O)[C@H](Cc2c[nH]cn2)NC(=O)OC)[C@@H](C)O)[C@@H](C)O)cc1 (single isomer, unassigned)', '77 ± 0.16%');

With those in mind, consider the next molecule.
Input CCc1cc(OC)ccc1-c1ccc(CC(NC(=O)[C@H](CC(=O)O)NC(=O)[C@H](CO)NC(=O)[C@@H](NC(=O)[C@H](Cc2ccccc2)NC(=O)[C@@H](NC(=O)CNC(=O)[C@H](CCC(N)=O)NC(=O)C2(NC(=O)[C@@H](N)Cc3c[nH]cn3)CC2)[C@@H](C)O)[C@@H](C)O)C(=O)NC(CCCc2ccc(F)cc2C(F)(F)F)C(N)=O)cc1 (single isomer, unassigned) . Output Human GLP-1 R activity (cAMP release), % activity with respect to control: 84 ± 0.46%

----------
# method-summary: Stability in simulated intestinal fluid
# Format: in vitro ADME
# condition-summary: 2 μM peptidomimetic, simulated intestinal fluid pH 7.5, 37° C., 24 h
Non-standard residues stand in square brackets, D forms with d. Residues, ends and D or L forms follow the SMILES beside them. ξ: configuration not given here. ξNMeBip(2'-Et,4'-OMe) = CCc1cc(OC)ccc1-c1ccc(CC(NC)C(=O)O)cc1; Leu(5,5,5,5',5',5'-F6) = N[C@@H](CC(C(F)(F)F)C(F)(F)F)C(=O)O; ξBip(2'-Et-4'-OMe) = CCc1cc(OC)ccc1-c1ccc(CC(N)C(=O)O)cc1; ξNMeNva(5-(2-F-Ph)) = CNC(CCCc1ccccc1F)C(=O)O; ξbishPhe(2-F) = NC(CCCc1ccccc1F)C(=O)O; ξαMePhe(2-F) = CC(N)(Cc1ccccc1F)C(=O)O; NMeD = CN[C@@H](CC(=O)O)C(=O)O; aThr = C[C@H](O)[C@H](N)C(=O)O; Aib = CC(C)(N)C(=O)O
% degradation of peptidomimetics in 24 h when incubated with simulated intestinal fluid: recorded values
# number only, unit % dropped from output

A selection of reference data follows.
INSERT INTO assay_data (molecule, quantitative_readout) VALUES
  ('CCc1cc(OC)ccc1-c1ccc(CC(NC(=O)[C@H](CC(=O)O)NC(=O)[C@H](CO)NC(=O)[C@@H](NC(=O)[C@H](Cc2ccccc2)NC(=O)[C@@H](NC(=O)CNC(=O)C(CCC#N)NC(=O)C(C)(C)NC(=O)[C@@H](N)Cc2c[nH]cn2)[C@@H](C)O)[C@@H](C)O)C(=O)NC(CCCc2ccc(OC)cc2Cl)C(N)=O)cc1 (single isomer, unassigned) [compound 84]', '00'),
  ('CCc1cc(OC)ccc1-c1ccc(CC(NC(=O)[C@H](CC(=O)O)NC(=O)[C@H](CO)NC(=O)[C@@H](NC(=O)C(C)(Cc2ccccc2F)NC(=O)[C@@H](NC(=O)CNC(=O)C(CCC#N)NC(=O)C(C)(C)NC(=O)[C@@H](N)Cc2c[nH]cn2)[C@H](C)O)[C@H](C)O)C(=S)NC(CCCc2ccccc2F)C(N)=O)cc1 (single isomer, unassigned) [compound 168]', 42),
  ('CCc1cc(OC)ccc1-c1ccc(CC(C(=O)N(C)C(CCCc2ccccc2F)C(N)=O)N(C)C(=O)[C@H](CC(=O)O)N(C)C(=O)[C@H](CO)NC(=O)[C@@H](NC(=O)C(C)(Cc2ccccc2F)NC(=O)[C@@H](NC(=O)CNC(=O)[C@H](CC(C(F)(F)F)C(F)(F)F)NC(=O)C(C)(C)NC(=O)[C@@H](N)Cc2c[nH]cn2)[C@H](C)O)[C@H](C)O)cc1 (stereo partly shown) [compound 221] (H-H[Aib][Leu(5,5,5,5'',5'',5''-F6)]G[aThr][ξαMePhe(2-F)][aThr]S[NMeD][ξNMeBip(2''-Et,4''-OMe)][ξNMeNva(5-(2-F-Ph))]-NH2)', '00'),
  ('CCc1cc(OC)ccc1-c1ccc(CC(NC(=O)[C@H](CC(=O)O)NC(=O)[C@H](CO)NC(=O)[C@@H](NC(=O)[C@H](Cc2ccccc2)NC(=O)[C@@H](NC(=O)CNC(=O)[C@H](CCC(N)=O)NC(=O)[C@H](CO)NC(=O)[C@@H](N)Cc2c[nH]cn2)[C@@H](C)O)[C@@H](C)O)C(=O)NC(CCCc2ccccc2C(F)(F)F)C(N)=O)cc1 (single isomer, unassigned) [compound 47]', 55),
  ('CCc1cc(OC)ccc1-c1ccc(CC(C(=O)N(C)C(CCCc2ccccc2)C(N)=O)N(C)C(=O)[C@H](CC(=O)O)N(C)C(=O)[C@H](CO)NC(=O)[C@@H](NC(=O)C(C)(Cc2ccccc2F)NC(=O)[C@@H](NC(=O)CNC(=O)C(CCC#N)NC(=O)C(C)(C)NC(=O)[C@@H](N)Cc2c[nH]cn2)[C@H](C)O)[C@H](C)O)cc1 (single isomer, unassigned) [compound 154]', 46),
  ('CCc1cc(OC)ccc1-c1ccc(CC(CNC(CCCc2ccccc2)C(N)=O)NC[C@H](CC(=O)O)NC(=O)[C@H](CO)NC(=O)[C@@H](NC(=O)C(C)(Cc2ccccc2F)NC(=O)[C@@H](NC(=O)CNC(=O)[C@H](CCC(N)=O)NC(=O)C(C)(C)NC(=O)[C@H](Cc2c[nH]cn2)NC(=O)OC)[C@@H](C)O)[C@@H](C)O)cc1 (single isomer, unassigned) [compound 194]', '00');

Below: the item to evaluate.
Field % degradation of peptidomimetics in 24 h when incubated with simulated intestinal fluid (entry CCc1cc(OC)ccc1-c1ccc(CC(NC(=O)[C@H](CC(=O)O)NC(=O)[C@H](CO)NC(=O)[C@@H](NC(=O)C(C)(Cc2ccccc2F)NC(=O)[C@@H](NC(=O)CNC(=O)[C@H](CC(C(F)(F)F)C(F)(F)F)NC(=O)C(C)(C)NC(=O)[C@H](Cc2c[nH]cn2)NC(C)=O)[C@@H](C)O)[C@@H](C)O)C(=O)NC(CCCc2ccccc2F)C(N)=O)cc1 (stereo partly shown) [compound 212] (Ac-H[Aib][Leu(5,5,5,5',5',5'-F6)]GT[ξαMePhe(2-F)]TSD[ξBip(2'-Et-4'-OMe)][ξbishPhe(2-F)]-NH2) ) reads 100
